testDetails: Clearance in Sprague-Dawley rat plasma
Format: ADME, organism-based
readoutName: clearance (mL/min/kg)
Write it as a number; the unit mL/min/kg goes unstated.

Query: Supply reported clearance belonging to this compound: `COc1ccc2[nH]c(C)c(CC(=O)N[C@@H](CCCCCC(C)=O)c3ncc(-c4ccccc4)[nH]3)c2c1`
Reply: 80

---

Test system: Mus musculus
testDetails: Toxicity against human HCT116 cells xenografted BALB/c mouse assessed as body weight loss at 100 mg/kg, ip administered 5 days per week for 2.5 weeks
Assay type: organism-based, HCT-116
Set-up: dose 100 mg/kg, route intraperitoneal
assaySetup: in vivo
readoutName: Activity

Query: State its Activity: `O=C(CCCCCCC(=O)Nc1ccccc1)NO`
Reply: < 10%

---

# IC50 per entry for Histone deacetylase 3 (Homo sapiens, UniProt O15379)
Just the number plus its unit, please.

substanceSmiles: CCC(=O)CCCCC[C@H](NC(=O)Cc1c(C)[nH]c2ccc(OC)cc12)c1ncc(-c2ccccc2)[nH]1
IC50: 48 nM

Attention now shifts to the item below.
Query: Please indicate recorded IC50 of `COc1ccc2[nH]c(C)c(CC(=O)N[C@@H](CCCCCC(C)=O)c3ncc(-c4ccccc4)[nH]3)c2c1` measured with Histone deacetylase 3 (Homo sapiens, UniProt O15379).
Sequence (O15379 whole entry): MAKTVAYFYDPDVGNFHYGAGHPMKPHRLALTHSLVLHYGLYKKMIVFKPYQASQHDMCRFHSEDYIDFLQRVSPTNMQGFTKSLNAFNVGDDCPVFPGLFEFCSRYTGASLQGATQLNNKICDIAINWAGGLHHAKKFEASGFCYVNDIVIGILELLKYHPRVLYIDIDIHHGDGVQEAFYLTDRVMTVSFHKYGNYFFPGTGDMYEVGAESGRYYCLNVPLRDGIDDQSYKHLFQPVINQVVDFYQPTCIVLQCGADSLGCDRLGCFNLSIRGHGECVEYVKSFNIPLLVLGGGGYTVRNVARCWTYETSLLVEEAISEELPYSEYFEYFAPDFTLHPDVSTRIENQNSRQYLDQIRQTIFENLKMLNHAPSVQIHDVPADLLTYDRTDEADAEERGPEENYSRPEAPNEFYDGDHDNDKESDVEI
Reply: 120 nM

---

Tested on: Mus musculus
testDetails: Toxicity against human HCT116 cells xenografted BALB/c mouse assessed as body weight loss at 60 mg/kg, ip administered 5 days per week for 2.5 weeks
Assay type: organism-based, HCT-116
Parameters: dose 60 mg/kg, route intraperitoneal
assaySetup: in vivo
readoutName: Activity

Query: Please look at this compound and report its Activity: `COc1ccc2[nH]c(C)c(CC(=O)N[C@@H](CCCCCC(C)=O)c3ncc(-c4ccccc4)[nH]3)c2c1`
Reply: < 10%

---

tgt: Histone deacetylase 5 (Homo sapiens)
Sequence (Q9UQL6 whole entry): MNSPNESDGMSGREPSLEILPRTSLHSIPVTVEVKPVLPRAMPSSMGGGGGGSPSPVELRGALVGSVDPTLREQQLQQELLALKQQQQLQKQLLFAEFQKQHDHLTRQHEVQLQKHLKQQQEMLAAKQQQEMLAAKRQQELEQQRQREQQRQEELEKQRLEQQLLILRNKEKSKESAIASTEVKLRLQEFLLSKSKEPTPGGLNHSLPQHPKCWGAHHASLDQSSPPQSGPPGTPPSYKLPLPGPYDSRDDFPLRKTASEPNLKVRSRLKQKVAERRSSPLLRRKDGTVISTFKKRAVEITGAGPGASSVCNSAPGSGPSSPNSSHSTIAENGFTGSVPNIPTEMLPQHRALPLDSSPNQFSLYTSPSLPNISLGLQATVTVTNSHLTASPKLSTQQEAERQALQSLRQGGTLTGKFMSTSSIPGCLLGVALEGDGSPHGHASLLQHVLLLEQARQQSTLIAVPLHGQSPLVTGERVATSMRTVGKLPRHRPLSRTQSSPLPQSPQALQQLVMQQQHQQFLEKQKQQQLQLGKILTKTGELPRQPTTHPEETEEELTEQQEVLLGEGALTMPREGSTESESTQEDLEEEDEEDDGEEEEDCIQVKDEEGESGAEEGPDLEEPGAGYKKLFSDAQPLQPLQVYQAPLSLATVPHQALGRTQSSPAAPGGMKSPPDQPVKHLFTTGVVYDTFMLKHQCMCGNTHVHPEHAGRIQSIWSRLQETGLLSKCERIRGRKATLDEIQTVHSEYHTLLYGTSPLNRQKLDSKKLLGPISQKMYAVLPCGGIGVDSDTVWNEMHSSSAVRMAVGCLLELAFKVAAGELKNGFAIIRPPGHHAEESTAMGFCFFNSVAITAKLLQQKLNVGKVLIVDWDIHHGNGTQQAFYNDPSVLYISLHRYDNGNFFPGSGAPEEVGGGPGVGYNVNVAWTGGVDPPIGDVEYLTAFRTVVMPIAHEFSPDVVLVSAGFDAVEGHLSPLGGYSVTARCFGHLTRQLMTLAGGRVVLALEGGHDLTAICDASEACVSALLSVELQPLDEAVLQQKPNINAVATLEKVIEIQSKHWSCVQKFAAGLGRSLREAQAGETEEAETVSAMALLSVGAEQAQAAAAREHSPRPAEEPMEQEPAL
pIC50: −log10 of the molar value.
This listing pairs compounds with measured pIC50.

Query: Supply reported pIC50 belonging to this compound: `COc1ccc2[nH]c(C)c(CC(=O)N[C@@H](CCCCCC(C)=O)c3nc4ccc(Cl)cc4[nH]3)c2c1`
Reply: < 5.00

Query: Determine its reported pIC50: `COc1ccc2[nH]c(C)c(CC(=O)N[C@@H](CCCCCC(C)=O)c3ncc(-c4ccccc4)[nH]3)c2c1`
Reply: < 5.00

---

tgt: Histone deacetylase 8 (Homo sapiens)
Sequence (Q9BY41 whole entry): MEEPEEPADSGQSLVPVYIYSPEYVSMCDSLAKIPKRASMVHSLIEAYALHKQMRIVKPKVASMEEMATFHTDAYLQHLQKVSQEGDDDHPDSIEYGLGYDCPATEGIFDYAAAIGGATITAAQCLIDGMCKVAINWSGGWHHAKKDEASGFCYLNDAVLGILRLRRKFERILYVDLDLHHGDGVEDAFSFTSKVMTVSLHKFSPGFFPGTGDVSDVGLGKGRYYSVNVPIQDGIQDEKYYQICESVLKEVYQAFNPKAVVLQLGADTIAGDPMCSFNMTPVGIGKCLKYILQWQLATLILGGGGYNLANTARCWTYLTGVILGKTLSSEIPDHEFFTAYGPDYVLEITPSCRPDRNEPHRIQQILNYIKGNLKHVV
readoutName: IC50

substanceSmiles: COc1ccc2[nH]c(C)c(CC(=O)N[C@@H](CCCCCC(C)=O)c3nc4ccc(Cl)cc4[nH]3)c2c1
measuredResult: > 10 µM

# evaluate next
Query: Give IC50 for this entry on Histone deacetylase 8 (Homo sapiens): `COc1ccc2[nH]c(C)c(CC(=O)N[C@@H](CCCCCC(C)=O)c3ncc(-c4ccccc4)[nH]3)c2c1`
Reply: > 5 µM
